Readings of Kd for the listed binders
Biological target: T1, recombinant human RNF43 extracellular domain (human, UniProt Q68DV7 24-197)
T1 construct: extracellular domain; also called huRNF43; human RNF43 ECD
T1 sequence (looked up): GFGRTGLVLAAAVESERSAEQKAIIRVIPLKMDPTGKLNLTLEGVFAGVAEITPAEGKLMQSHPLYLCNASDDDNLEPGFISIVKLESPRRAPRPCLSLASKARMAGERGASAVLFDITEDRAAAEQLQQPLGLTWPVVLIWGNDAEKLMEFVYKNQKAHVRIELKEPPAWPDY
Assay: SPR Biacore 8K; antibody captured on Protein A; RNF43 ECD analyte; 25 C

{"binder": "RNF43-80 (antibody, V domains shown, Rat clone; VH/VL only) VH: EVQLVESGGGLVQPGRSLKVSCLASGFNFGDFGMNWIRQAPGKGLEWVSYISSTSGTIYYADTVKGRFTISRDNAKNTLYLQLSSLRSEDTALYYCARPAGRYFDYWGQGVLVTVSS VL: DIVMTQSPSSLAVSAGETVTIDCKSNQSLLYSGNQKNYLAWYQQKPGQSPKLLIYWTSTRQSGVPDRFIGSGSGTEFTLTISSVQAEDLAIYYCQQYYHTPFTFGSGTKLEIK", "measurement_unit": "nM", "Kd": 0.48}
{"binder": "RNF43-35 (antibody, V domains shown, Rat clone; VH/VL only) VH: QVQLKESGPGLVQPSQTLSLTCTVSGFSLTTYSVHWVRQHSGKNLEWMGRMWTAGDTSYNSAFTSRLNIFRDTSKSQVFLKMNSLQTEDTGTYYCARSSYTSGYPFDSWGQGVMVTVSS VL: DTVLTQSPALAVSPGERVTISCRASESVSKLMHWYQQRPGQQPQLLIYLTSHLASGVPARFSGSGSGTDFTLTIDPVEADDTATYYCQQSRNDPTFGAGTKLELK", "measurement_unit": "nM", "Kd": 0.07}
{"binder": "RNF43-53 (antibody, V domains shown, Rat clone; VH/VL only) VH: EVQLVESGGGLVQPGRSLKLSCGASGFSFSTYYMVWVRQAPTKGLEWVASISPNGGNTYYPDSVKGRFTISRDNAKSTQYLQMDSLRSEDTATYYCATDGSYYYDGYRWLAYWGQGTLVTVSS VL: QFVLTQPNSVSTNLGSTVKLSCKRSTGNIGSNYVSWYQQHEGRSPTTLIYRDDKRPDGVPDRFSGSIDRSSNSALLTINNVQTEDEAGYFCQSFSSGLFIFGGGTKLTVL", "measurement_unit": "nM", "Kd": 3.3}
